Items are presented alongside their recorded IC50.
target: GST-JAK2(808-1132) (Homo sapiens, UniProt O60674)
Construct: GST-JAK2(808-1132); purchased Invitrogen (Carlsbad, USA) #4288
Sequence (O60674 808-1132): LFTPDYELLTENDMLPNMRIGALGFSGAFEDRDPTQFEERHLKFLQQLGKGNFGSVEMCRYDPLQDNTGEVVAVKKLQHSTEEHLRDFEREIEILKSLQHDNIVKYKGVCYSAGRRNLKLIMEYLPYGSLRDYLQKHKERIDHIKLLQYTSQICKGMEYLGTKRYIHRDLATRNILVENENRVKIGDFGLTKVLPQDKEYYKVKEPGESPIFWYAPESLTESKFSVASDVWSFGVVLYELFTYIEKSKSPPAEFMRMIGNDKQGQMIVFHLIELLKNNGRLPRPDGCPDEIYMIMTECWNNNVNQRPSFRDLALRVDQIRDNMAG
method-notes: JAK2 kinase assay (Caliper mobility shift, LabChip 3000)
Type: biochemical
Field format: number, assumed nM, no unit text.

INSERT INTO assay_data (molecule, unit_of_measurement, quantitative_readout) VALUES
  ('Cc1ccc(Nc2ncc3ccn(-c4cc(F)c(CN5CCS(=O)(=O)CC5)c(F)c4)c3n2)cc1Cl [Example 129]', 'nM', 9),
  ('CC(=O)N1CCN(Cc2ccc(Nc3ncc4ccn(-c5ccc(C(=O)N6CCOCC6)cc5)c4n3)cc2)CC1 [Example 338]', 'nM', 3.9);

Which IC50 is reported for this molecule? CN1CCN(C(=O)c2ccc(Nc3ncc4ccn(-c5ccc(CN6CCOCC6)c(F)c5)c4n3)cc2F)CC1 [Example 158] 9.4

Quick one: IC50 for Cc1ccc(Nc2ncc3ccn(-c4cc(F)c(CN5CCN(C)CC5)c(F)c4)c3n2)cc1C [Example 304] ? 13.5

Name the reported IC50 value associated with the molecule N#Cc1ccc(Nc2ncc3ccn(-c4ccc(C(=O)N5CCOCC5)cc4)c3n2)cn1 [Example 235] 56

Entry CN1CCN(c2ccc(Nc3ncc4ccn(-c5cc(F)c(C(=O)N6CCOCC6)c(F)c5)c4n3)cn2)CC1 [Example 221] : reported IC50 = ? 4.7

Name the reported IC50 value associated with the molecule COCc1ccc(Nc2ncc3ccn(-c4cc(F)c(CN5CCOCC5)c(F)c4)c3n2)cc1 [Example 135] 4.9

So what's the measured IC50 for this one? Cc1ccc(Nc2ncc3ccn(-c4cc(F)c(CN5CCN(C6CC6)CC5)c(F)c4)c3n2)cc1C [Example 306] 39.5

Consider the molecule Cc1ccc(Nc2ncc3ccn(-c4cc(F)c(CN5CCOCC5)c(F)c4)c3n2)cc1C(=O)N1C[C@@H](C)N[C@@H](C)C1 [Example 452] and give its measured IC50. 6.2

Any idea what its IC50 is? The molecule is CC(C)Oc1ccc(Nc2ncc3ccn(-c4ccc(CN5CCCC5)cc4)c3n2)cc1 [Example 107] 8.1

Taken from patent US8420657B2.
